These data points were gathered from the RNAGym collection of RNA variant scans (doi:10.7554/elife.80360).

B1: HDV Ribozyme (parent)
chain: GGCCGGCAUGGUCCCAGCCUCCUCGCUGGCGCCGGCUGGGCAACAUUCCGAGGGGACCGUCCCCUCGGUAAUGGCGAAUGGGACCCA

variants of: B1; test: self-cleavage, relative activity (ratio to wild type); higher = more cleavage; co-transcriptional
Outcome label depends on self-cleavage relative to 0.5: at/above gives MET, below gives NOT MET.

>>> label_class("A42U A45U")
"MET"
>>> label_class("A8G C57A")
"MET"
>>> label_class("C15A C85G")
"MET"
>>> label_class("C3U A16G")
"MET"
>>> label_class("C21A C36G")
"NOT MET"
>>> label_class("U9G G68A")
"MET"
>>> label_class("G10U C84G")
"MET"
>>> label_class("A43G U65G")
"MET"
>>> label_class("C57G C61G")
"MET"
>>> label_class("G39A U72C")
"NOT MET"
>>> label_class("C13U A71C")
"MET"
>>> label_class("C44A G67U")
"MET"
>>> label_class("C26U G31U")
"MET"
>>> label_class("C13G A45C")
"NOT MET"
>>> label_class("G25U C41G")
"NOT MET"
>>> label_class("G2U G10U")
"NOT MET"
>>> label_class("U65G C66A")
"MET"
>>> label_class("U65G G82A")
"NOT MET"
>>> label_class("C58G G59A")
"MET"
>>> label_class("G28C C48G")
"NOT MET"
>>> label_class("G5A C22U")
"NOT MET"
>>> label_class("G29U G50U")
"NOT MET"
